Answer each item with its documented TGI.
- Tested on: NCI-H23 lung
- Assay explanation: NCI tumour cell line growth inhibition, 48 h
// note: answer is a bare numeric in µM

Provide only the value of recorded TGI for CC(C)=CCc1c2c(c(O)c3c1O[C@]14C(=C[C@@H]5C[C@H]1C(C)(C)O[C@@]4(C/C=C(/C)C(=O)O)C5=O)C3=O)CC(O)C(C)(C)O2 (some centres undefined)
48.4

Provide only the value of recorded TGI for N#Cc1c(NC(=O)c2ccc(F)c(Cl)c2)sc2c1CCC(=O)C2
2.08

###

- Test system: 786-0 renal
- Assay explanation: NCI tumour cell line growth inhibition, 48 h
Kindly return fulfilled if reported TGI is no lower than 40 µM; return not fulfilled if it is lower.

Form field: TGI at least 40 µM? Entry: Cc1ccc2c(n1)C(=O)C(Cl)=C(Nc1cccc(C(F)(F)F)c1)C2=O
not fulfilled

Form field: TGI at least 40 µM? Entry: [Cl][Ru].c1ccc(-c2cccc(-c3ccccn3)n2)nc1.c1ccc(-c2ccnc3c2ccc2c(-c4ccccc4)ccnc23)cc1
fulfilled

Form field: TGI at least 40 µM? Entry: N#Cc1c(NC(=O)c2ccc(F)c(Cl)c2)sc2c1CCC(=O)C2
not fulfilled

Form field: TGI at least 40 µM? Entry: CC(C)=CCc1c2c(c(O)c3c1O[C@]14C(=C[C@@H]5C[C@H]1C(C)(C)O[C@@]4(C/C=C(/C)C(=O)O)C5=O)C3=O)CC(O)C(C)(C)O2 (stereo not given in full)
not fulfilled

Form field: TGI at least 40 µM? Entry: COc1ccc(C2C(C#N)=C(N)Oc3c2sc2ccc(C)cc32)cc1 (stereo not given)
not fulfilled
